system: MCF7; assay: NCI tumour cell line growth inhibition, 48 h
Calls of active or inactive are those of the source. Cut-off read from the data, not from the text of the source: active = GI50 up to about 1.1 µM and inactive = higher.
Possible outcomes: true (1) for active, false (0) for inactive

Compound: Cn1cc(NC(=O)c2cc(NC(=O)c3cc(NC=O)cn3C)cn2C)cc1C(=O)NCCC(=N)N
Label: false (0)

Compound: N#C/C(=C\c1ccc2[nH]ccc2c1)C(=O)c1ccc(O)c(O)c1
Label: false (0)

Compound: CCOC(=O)C(CC(C)C)NC(=O)CSc1nnc(COc2ccc(Cl)cc2)n1-c1ccccc1 (stereo not given)
Label: false (0)

Compound: Nc1ncnc2c1ncn2C=C=CCO
Label: false (0)

Compound: CC1=CCC(C(C)(C)NC(=O)c2ccccc2)C/C1=N/O (stereo not given)
Label: false (0)

Compound: NC(=S)N1N=C(c2ccc3c(c2)CCC3)CC1c1ccccc1 (stereo not given)
Label: false (0)

Compound: O=C(c1ccco1)N(C(=S)OCc1ccccn1)c1ccccc1
Label: false (0)

Compound: COC(OC)C1OC(CO)C(n2ccc(N)nc2=O)C1O (stereo not given)
Label: false (0)

Compound: Cc1cn2c(/C=N/NC(=N)N)c(-c3cccc([N+](=O)[O-])c3)nc2s1
Label: true (1)

Compound: O=C(NC/C(Cl)=C/Cl)Nc1cccc2c1CCCC2
Label: false (0)

Compound: CCOC(=O)/C=C(/C(=O)OCC)n1ccc(=O)n(Cc2cnnn2CCCCOC(C)=O)c1=O
Label: false (0)

Compound: CSc1ccc(NC(=O)CCl)cc1
Label: false (0)

Compound: CC(=O)NCCCCN(CCCNC(C)=O)C(=O)CNS(=O)(=O)c1cccc2c(N(C)C)cccc12
Label: false (0)

Compound: CC(C)(CN1CCCCC1)C(=O)CC(SCCS(=O)(=O)O)c1ccc(Cl)cc1 (stereo not given)
Label: false (0)

Compound: Cc1cc(C)nc(NS(=O)(=O)c2ccc(NC(=O)c3c4ccccc4nc4ccccc34)cc2)n1
Label: false (0)

Compound: CC(OC(=O)C(CC(=O)OC(C)(C)C)NC(=O)OC(C)(C)C)C(=O)OCc1ccccc1 (stereo not given)
Label: false (0)

Compound: Cc1cc(Cl)nc2nc(Cl)c(N)cc12
Label: false (0)

Compound: CNc1cccc(-c2cc(O)c3cc4c(cc3n2)OCO4)c1
Label: true (1)

Compound: c1cncc(-c2cc(-c3cc(-c4cccnc4)[nH]n3)n[nH]2)c1
Label: false (0)

Compound: CCOC(=O)C1=C(Cl)c2cccnc2C1=O
Label: false (0)

====

Measured GI50 values are reported for all entries that follow.
system: KM12; test: NCI tumour cell line growth inhibition, 48 h
Activity calls are given as the source filed them. Rule as the data show it: active = GI50 up to about 1.1 µM and inactive = higher.

Compound: Cc1cccc(Cl)c1NC(=O)c1cccc([N+](=O)[O-])c1O
Target Under Test: KM12
GI50: 21.3 µM (inactive)
//
Compound: Cc1cc(Br)cc(C)c1NC(=O)C(=O)Nn1c(S)nc2ccccc2c1=O
Target Under Test: KM12
GI50: > 100 µM (inactive)
//
Compound: CCCCC(NC(=O)CC)C(=O)O (centres undefined)
Target Under Test: KM12
GI50: > 100 µM (inactive)
//
Compound: OCC(O)COCn1nncc1Cn1ncc2c(SCc3ccccc3)ncnc21 (centres undefined)
Target Under Test: KM12
GI50: > 100 µM (inactive)
//
Compound: COC(=O)C(COC(=O)/C=C/c1ccc(OC(C)=O)c(OC(C)=O)c1)OC(=O)/C=C/c1ccc(OC(C)=O)c(OC(C)=O)c1 (centres undefined)
Target Under Test: KM12
GI50: 12 µM (inactive)
//
Compound: O=C(O)C(C(=O)O)P(=S)(S)c1ccccc1 (centres undefined)
Target Under Test: KM12
GI50: > 100 µM (inactive)
//
Compound: Cc1cc(C)nc(NS(=O)(=O)c2ccc(NC(=O)c3c4ccccc4nc4ccccc34)cc2)n1
Target Under Test: KM12
GI50: 47 µM (inactive)
//
Compound: CC1C2CC(CC2(C)O)C1(C)C (centres undefined)
Target Under Test: KM12
GI50: > 100 µM (inactive)
//
Compound: NC(=S)N/C=C1\C(=O)Oc2ccccc2C1=O
Target Under Test: KM12
GI50: > 100 µM (inactive)
//
Compound: Nc1ccc(C2(c3ccc(N)cc3)C3CC4CC(C3)CC2C4)cc1
Target Under Test: KM12
GI50: 0.0975 µM (active)
//
Compound: N/N=C(\Nc1ccccc1)SCc1ccccc1
Target Under Test: KM12
GI50: > 100 µM (inactive)
//
Compound: COc1cc(C(C)c2cc3c(cc2OCCCCCOc2cc4c(cc2C(C)c2cc(OC)c(OC)c(OC)c2)OCO4)OCO3)cc(OC)c1OC (centres undefined)
Target Under Test: KM12
GI50: > 100 µM (inactive)
//
Compound: CC1(C)OCC(/C=C\C(O)CC2(C)OCCO2)CO1 (centres undefined)
Target Under Test: KM12
GI50: > 100 µM (inactive)
//
Compound: CO/C(=N\N=C\c1ccc(OC)cc1OC)c1ccncc1
Target Under Test: KM12
GI50: > 10 µM (inactive)

====

Endpoint: GI50. System: HCT-15. Items follow.

Molecule: C#CCn1c(=O)c(C#N)c(O)c2cc3ccccc3nc21
GI50: > 100 µM
//
Molecule: CS/C(=N\Nc1cnc2ccccc2n1)NS(=O)(=O)c1cc(C)c(Cl)cc1Cl
GI50: > 100 µM
//
Molecule: O=C(O)c1cc(NC2=C(Cl)C(=O)c3c(O)ccc(O)c3C2=O)ccc1O
GI50: > 10 µM
//
Molecule: CC(=O)OCC(OC(C)=O)C(OC(C)=O)C(/C=N\Nc1nc2ccccc2c(=O)[nH]1)=N\Nc1nc2ccccc2c(=O)[nH]1 (centres undefined)
GI50: > 100 µM
//
Molecule: COc1ccc2c(c1)c1c3n2CCNN=C3CCC1
GI50: > 70.1 µM
//
Molecule: CO[P@@]1(=O)O[C@@H](c2ccccc2)[C@H](O)[C@]1(O)c1ccccc1
GI50: > 100 µM
//
Molecule: COC(=O)c1ccccc1OCc1cc(=O)oc2ccc(C)cc12
GI50: > 100 µM
//
Molecule: CCN(CC)CCN(C(=O)c1ccc(F)cc1)c1ccccc1N
GI50: > 10 µM
//
Molecule: Cn1c(=O)c2[nH]c(CCC(=O)O)nc2n(C)c1=O
GI50: > 100 µM

====

test system: CCRF-CEM; experiment: NCI tumour cell line growth inhibition, 48 h
Activity calls are given as the source filed them. No stated cut-off is given here; in the data, active = GI50 up to about 1.1 µM and inactive = higher.
Possible outcomes: label 1 for active, label 0 for inactive

Compound: Nc1c2ccccc2nc2c1ccc1ncccc12
Label: label 0
//
Compound: CCC12C=CCN3CCC4(c5cc(C6(C(=O)OC)CCCCCc7c6[nH]c6ccccc76)c(OC)cc5N(C)C4C(O)(C(=O)OC)C1OC(C)=O)C32 (centres undefined)
Label: label 0
//
Compound: C/N=c1\ss/c(=N\C(=S)N(C)C)n1C
Label: label 0
//
Compound: CN1C(=O)N/C(=C\c2ccc(S(=O)(=O)N/N=C/c3ccccc3)cc2)C1=O
Label: label 0
//
Compound: C=CCOc1ccccc1C1(O)c2ccccc2C2=NCCCN21 (centres undefined)
Label: label 0
//
Compound: C[C@]12C=CC(=O)C=C1CC[C@@H]1[C@@H]2C(=O)C[C@@]2(C)[C@H]1CC[C@]2(O)C(=O)CO [PREDNISONE]
Label: label 0
//
Compound: COC(=O)c1c2n(c3ccccc13)C[C@H]1OC(C)(C)O[C@@H]21
Label: label 0
//
Compound: CCNC1C2(CCCCC2)NC(=O)C12CCCCC2 (centres undefined)
Label: label 0
//
Compound: OCc1ccc(C2CC(c3ccco3)=NN2c2ccccc2)o1 (centres undefined)
Label: label 0
//
Compound: Cc1ccc(C(=O)O)cc1S(=O)(=O)Nn1cnc2ccc(S(=O)(=O)Nc3ccccc3C(=O)O)cc2c1=O
Label: label 0
//
Compound: CC1(C)Cc2c(c3ccccc3c3nc4c(nc23)c2c(c3ccccc34)OC(C)(C)C2)O1
Label: label 0
//
Compound: CCOC(=O)C1(C(=O)OCC)CCCN1C(=O)[C@H](CNC(=O)OC(C)(C)C)NC(=O)OCc1ccccc1
Label: label 0
//
Compound: COc1ccccc1Cn1c2c(c3c(C(=O)NCCN(C)C)c(O)ccc31)C(=O)c1ccccc1C2=O
Label: label 1
//
Compound: NC(=O)c1coc(C2OC(CO)C(O)C2O)n1 (centres undefined)
Label: label 0
